Taken from the NIST ThermoML archive (doi:10.1021/je800248w).

- procedure.text: molar heat capacity at constant pressure
- reported.conditions: 333.15 K; 101.3 kPa; Liquid; Small sample (50 mg) DSC
Numbers after ± are expanded uncertainties.
I'd be grateful if you could share measured molar heat capacity at constant pressure for these entries.

Recorded molar heat capacity at constant pressure of CCn1cc[n+](C)c1.O=S(=O)([O-])C(F)(F)F [1-ethyl-3-methylimidazolium trifluoromethanesulfonate] , please.
380 ± 31 J/K/mol

Param item = CCOS(=O)(=O)[O-].CCn1cc[n+](C)c1 [1-ethyl-3-methylimidazolium ethyl sulfate] ; retrieve measured molar heat capacity at constant pressure.
397 ± 32 J/K/mol

What value of molar heat capacity at constant pressure has been recorded for this entry: CCn1cc[n+](C)c1.O=C([O-])C(F)(F)F [1-ethyl-3-methylimidazolium trifluoroacetate]
332 ± 27 J/K/mol

Return reported molar heat capacity at constant pressure; argument: O
75 ± 6 J/K/mol
